Where do the numbers come from? From patent US20230265151A1.

Item-by-item account of cAMP EC50
Biological target: human glucagon-like peptide-1 (GLP-1) receptor (human, UniProt P43220 24-463)
Experiment: cell-based or functional assay
Answer format: numeric, nM implied, no suffix.

binder	quantity_kind	readout_number
YXEGTXTSDXSIXLDXIAQXKFIKXLIEGGPSSGAPPPS (Aib2, αMeF(2F)6, 4Pal10, αMeL13, Orn16, Aib20, K21(Z), K24(Z), αMeY25, C-terminal NH2; Z = AEEA2-CO-(CH2)12-CO2H) [Example 191]	cAMP EC50	0.926

Briefly, cAMP EC50 measured for YXEGTXTSDXSIXLDXKAQXEFIKXLIEGGPSSGAPPPS (Aib2, αMeF(2F)6, 4Pal10, αMeL13, Orn16, K17(Z), Aib20, K24(Z), αMeY25, C-terminal NH2; Z = (εK)-(εK)-(γ-Glu)-CO-(CH2)12-CO2H) [Example 162] : 0.327

Recorded cAMP EC50 (binder YXEGTXTSDXSIXLDXKAQXEFIXXLIEGGPSSGAPPPSK (Aib2, αMeF(2F)6, 2Nal10, αMeL13, Orn16, K17(Z), Aib20, D-Glu24, αMeY25, K40(Z), C-terminal NH2; Z = AEEA2-CO-(CH2)12-CO2H) [Example 257] ): 2.03
